Tested on: PPARg homodimer (NR concentration 180 nM)
Experiment: PBM binding z-score (relative to random genomic background probes); higher = stronger binding; sequences stand for … in GC…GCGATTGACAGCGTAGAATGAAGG
PBM binding z-score values, listed per item
Give the figure by itself; no unit, no explanation.

Below, each entry is followed by its recorded PBM binding z-score result.
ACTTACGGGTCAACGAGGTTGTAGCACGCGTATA | 3.47
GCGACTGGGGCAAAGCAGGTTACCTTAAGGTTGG | -0.599
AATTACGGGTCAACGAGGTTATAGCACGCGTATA | 3.16
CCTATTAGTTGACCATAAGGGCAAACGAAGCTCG | 1.58
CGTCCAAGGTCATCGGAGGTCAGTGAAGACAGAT | 6.99

Here is the next item to consider.
Measured PBM binding z-score, TCTCGGAGGACATGAAAGGTCAGAGCTCGACATC : 2.54

Just for reference, the supplement of paper PMC6555819 is where these values come from.
